MEASUREMENT TARGET: norepinephrine transporter (Homo sapiens)
Sequence (P23975 whole entry): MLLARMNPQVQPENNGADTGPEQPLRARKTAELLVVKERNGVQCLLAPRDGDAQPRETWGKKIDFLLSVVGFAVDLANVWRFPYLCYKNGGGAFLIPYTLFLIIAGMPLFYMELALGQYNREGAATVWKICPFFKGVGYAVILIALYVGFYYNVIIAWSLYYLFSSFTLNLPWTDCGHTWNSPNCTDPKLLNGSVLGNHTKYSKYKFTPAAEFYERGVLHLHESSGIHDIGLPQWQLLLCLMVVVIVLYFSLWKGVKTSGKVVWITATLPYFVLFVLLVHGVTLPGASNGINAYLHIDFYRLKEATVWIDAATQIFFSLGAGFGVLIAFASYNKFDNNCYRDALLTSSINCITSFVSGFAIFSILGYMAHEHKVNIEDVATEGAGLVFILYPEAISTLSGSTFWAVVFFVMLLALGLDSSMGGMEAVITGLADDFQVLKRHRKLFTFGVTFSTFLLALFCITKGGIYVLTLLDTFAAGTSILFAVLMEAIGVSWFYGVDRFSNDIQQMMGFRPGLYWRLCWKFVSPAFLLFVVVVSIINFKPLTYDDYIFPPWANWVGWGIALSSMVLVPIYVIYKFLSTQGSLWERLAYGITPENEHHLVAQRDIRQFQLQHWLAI
ASSAY REMARKS: Functional activity, norephinephrine uptake inhibition in MDCK cell lines
Assay type: cell-based
ASSAY CONDITIONS: read-out: NE Uptake, Functional Assays (antagonism, EC50); MDCK cell lines
QUANTITY NAME: EC50

# value of EC50, norepinephrine transporter (Homo sapiens), item OC(CN1CCCC(COc2ccc(C(F)(F)F)cc2)C1)C1(c2ccccc2OC(F)(F)F)CCC1 (single isomer, unassigned) = > 1000 nM

---

Entries and their IC50 values follow.
MEASUREMENT TARGET: serotonin transporter (Homo sapiens, UniProt P31645)
Sequence (P31645 whole entry): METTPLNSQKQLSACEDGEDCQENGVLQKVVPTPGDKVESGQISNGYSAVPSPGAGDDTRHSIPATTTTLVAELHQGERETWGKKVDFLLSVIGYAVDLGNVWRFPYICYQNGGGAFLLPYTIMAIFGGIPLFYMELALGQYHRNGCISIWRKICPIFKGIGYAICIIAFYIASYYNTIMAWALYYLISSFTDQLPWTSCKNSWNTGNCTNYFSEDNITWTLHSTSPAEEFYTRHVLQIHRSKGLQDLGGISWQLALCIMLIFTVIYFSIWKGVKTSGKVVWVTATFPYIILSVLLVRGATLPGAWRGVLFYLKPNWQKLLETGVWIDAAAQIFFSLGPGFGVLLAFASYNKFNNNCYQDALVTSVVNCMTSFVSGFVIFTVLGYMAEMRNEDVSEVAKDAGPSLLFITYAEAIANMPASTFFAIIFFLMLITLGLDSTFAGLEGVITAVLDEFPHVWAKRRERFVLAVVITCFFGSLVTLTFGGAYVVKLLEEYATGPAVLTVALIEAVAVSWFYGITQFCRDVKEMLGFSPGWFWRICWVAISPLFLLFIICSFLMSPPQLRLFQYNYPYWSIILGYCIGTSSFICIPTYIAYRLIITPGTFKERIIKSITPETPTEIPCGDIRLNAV
ASSAY REMARKS: 5-HT uptake: displacement of serotonin ligands in vitro (methods of Gu et al.)
Assay type: binding
ASSAY CONDITIONS: displacement of serotonin ligands in vitro; read-out: 5-HT Uptake, Uptake Profile (IC50)

CC(CN1CCCC(COc2ccc(C(F)(F)F)cc2)C1)C(O)c1ccc(Cl)cc1 (centres unmarked)	< 1000 nM
Fc1ccc(OCC2CCCN(CC3(c4ccc(Cl)cc4)CCC3)C2)cc1 (centres unmarked)	< 1000 nM
OC(CN1CCCC(CCc2ccc(C(F)(F)F)cc2)C1)c1ccc(Cl)cc1 (single isomer, unassigned) [compound 151]	< 1000 nM

# value of IC50, serotonin transporter (Homo sapiens, UniProt P31645), item OC(CN1CCC[C@@H](CCc2ccccc2)C1)c1ccc(Cl)cc1 (some centres unmarked) = < 10 nM

# value of IC50, serotonin transporter (Homo sapiens, UniProt P31645), item FC(F)(F)c1ccc(SCC2CCCN(CC3(c4ccc(Cl)cc4)CCC3)C2)cc1 (centres unmarked) = > 1000 nM

# value of IC50, serotonin transporter (Homo sapiens, UniProt P31645), item CC(O)(CN1CCC[C@@H](CCc2ccccc2)C1)c1ccc(Cl)cc1 (some centres unmarked) = < 10 nM

# value of IC50, serotonin transporter (Homo sapiens, UniProt P31645), item OC(CN1CCCC(CCc2ccccc2)C1)c1ccc(Cl)cc1 (centres unmarked) [compound 140] = < 100 nM

# value of IC50, serotonin transporter (Homo sapiens, UniProt P31645), item OC(CN1CCCC(COc2ccc(C(F)(F)F)cc2)C1)C1(c2ccc(Cl)cc2)CCC1 (centres unmarked) = < 1000 nM

# value of IC50, serotonin transporter (Homo sapiens, UniProt P31645), item O=C(CN1CCCC(CCc2ccc(C(F)(F)F)cc2)C1)C1(c2ccc(Cl)cc2)CCC1 (centres unmarked) = > 1000 nM

# value of IC50, serotonin transporter (Homo sapiens, UniProt P31645), item FC(F)(F)c1ccc(OCC2CCCN(CC3COc4ccccc4O3)C2)cc1 (single isomer, unassigned) [compound 178] = < 1000 nM

# value of IC50, serotonin transporter (Homo sapiens, UniProt P31645), item FC(F)(F)c1ccc(COC2CCCN(CC3(c4ccc(Cl)cc4)CCC3)C2)cc1 (centres unmarked) = > 1000 nM

# value of IC50, serotonin transporter (Homo sapiens, UniProt P31645), item FC(F)(F)c1cc(COC2CCCN(CC3(c4ccc(Cl)cc4)CCC3)C2)cc(C(F)(F)F)c1 (centres unmarked) = > 1000 nM

# value of IC50, serotonin transporter (Homo sapiens, UniProt P31645), item OC(CN1CCCC(COc2ccc(C(F)(F)F)cc2)C1)c1ccc(Cl)cc1 (centres unmarked) = < 100 nM

# value of IC50, serotonin transporter (Homo sapiens, UniProt P31645), item FC(F)(F)c1ccc(OCC2CCCN(CCc3c[nH]c4ccccc34)C2)cc1 (centres unmarked) = < 1000 nM

# value of IC50, serotonin transporter (Homo sapiens, UniProt P31645), item O=C(CN1CCCC(COc2ccccc2)C1)C1(c2ccc(Cl)cc2)CCC1 (centres unmarked) = < 1000 nM

# value of IC50, serotonin transporter (Homo sapiens, UniProt P31645), item `FC(F)(F)c1ccc(COC[C@@H]2CCCN(CC3(c4ccc(Cl)cc4)CCC3)C2)cc1` = < 1000 nM

# value of IC50, serotonin transporter (Homo sapiens, UniProt P31645), item NCC1CCCN(CC2(c3ccc(Cl)cc3)CCC2)C1 (centres unmarked) = > 1000 nM

All values here come from patent US7294637B2.
